Tested on: 6F11-mAb
Experiment: icELISA with purified 6F11-mAb
Format: binding, mouse
Details: 6F11-mAb, imidacloprid-OVA 10 µg/mL
IC50 strictly less than 1 ng/mL = Fulfilled. Otherwise Not fulfilled.

compound | class-label
O=[N+]([O-])NC1=NCCN1Cc1ccc(Cl)nc1 [Imidacloprid, imidacloprid] | Fulfilled
CCN(Cc1ccc(Cl)nc1)/C(=C/[N+](=O)[O-])NC [Nitenpyram, nitenpyram] | Not fulfilled
N#C/N=C1\SCCN1Cc1ccc(Cl)nc1 [Thiacloprid, thiacloprid] | Not fulfilled
O=[N+]([O-])/N=C1\NCCN1Cc1cnc(Cl)s1 [Imidaclothiz, imidaclothiz] | Fulfilled
O=[N+]([O-])/N=C1\NCOCN1Cc1cnc(Cl)s1 [N-desmethyl thiamethoxam] | Fulfilled
CN/C(=N\[N+](=O)[O-])NCc1cnc(Cl)s1 [Clothianidin, clothianidin] | Fulfilled

IN: Hi there! Is IC50 for C/C(=N\C#N)N(C)Cc1ccc(Cl)nc1 [Acetamiprid, acetamiprid] below 1 ng/mL, do you know?
OUT: Not fulfilled

IN: Hi there! Is IC50 for CN1COCN(Cc2cnc(Cl)s2)/C1=N\[N+](=O)[O-] [Thiamethoxam, thiamethoxam] below 1 ng/mL, do you know?
OUT: Not fulfilled

IN: Hi there! Is IC50 for CN/C(=N/CC1CCOC1)N[N+](=O)[O-] (stereo not shown) [Dinotefuran, dinotefuran] below 1 ng/mL, do you know?
OUT: Not fulfilled

IN: Hi there! Is IC50 for O=[N+]([O-])/C=C1\NCCN1Cc1ccc(Cl)nc1 [6-Cl-PMNI] below 1 ng/mL, do you know?
OUT: Fulfilled
